Data credit: patent US12673936B2

Molecular target: HiBiT tagged GSPT1 (Homo sapiens, UniProt P15170+Q96SW2)
Sequence (P15170 whole entry, one chain of several): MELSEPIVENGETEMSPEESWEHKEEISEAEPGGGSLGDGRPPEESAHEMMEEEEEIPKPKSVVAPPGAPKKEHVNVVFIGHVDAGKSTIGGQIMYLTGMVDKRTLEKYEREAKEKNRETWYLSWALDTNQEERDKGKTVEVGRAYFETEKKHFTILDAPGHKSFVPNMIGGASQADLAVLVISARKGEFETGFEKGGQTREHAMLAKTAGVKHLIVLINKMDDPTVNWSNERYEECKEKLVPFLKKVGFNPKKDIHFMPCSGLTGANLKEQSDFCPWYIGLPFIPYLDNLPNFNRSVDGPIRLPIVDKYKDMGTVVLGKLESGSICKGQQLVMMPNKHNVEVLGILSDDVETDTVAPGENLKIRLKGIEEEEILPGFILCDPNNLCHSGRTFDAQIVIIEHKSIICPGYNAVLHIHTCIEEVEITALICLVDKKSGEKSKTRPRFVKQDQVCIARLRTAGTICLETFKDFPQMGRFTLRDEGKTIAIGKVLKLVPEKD
Experiment: GSPT1 degradation assay (HiBiT assay)
Format: cell-based
Conditions: HT-1080, HT-1080 cells, 20 hours; maximum GSPT1 degradation
Procedure: CK1α and GSPT1 Degradation Assay (HiBiT Assay) The following is an example of an assay that can be used to determine the dose-dependent CK1α and GSPT1 degradation activities of test compounds in a human cell line such as HT-1080 (ATCC Cat #CRL-9591). […] Luminescence was then measured with an EnVision plate reader (PerkinElmer) or a PHERAstar plate reader (BMG Labtech). […] CK1α or GSPT1 levels in compound-treated wells were normalized to that of DMSO control and expressed as Percent of Control (PoC, y). […]
readout_type: Dmax (%)

Known results for compounds:
{"compound": "COc1ccccc1C(NC(=O)c1ccc2c(c1)CN(C1CCC(=O)NC1=O)C2=O)C1CC1 (stereo not drawn)", "readout_type": "Dmax", "reading_unit": "%", "recorded_number": 24.5}
{"compound": "O=C1CCC(N2Cc3cc(C(=O)N[C@H](c4ncccc4F)C4(F)CCC4)ccc3C2=O)C(=O)N1 (stereo in doubt)", "readout_type": "Dmax", "reading_unit": "%", "recorded_number": 14.9}
{"compound": "CN1CCN(c2ccc([C@@H](NC(=O)c3ccc4c(c3)CN(C3CCC(=O)NC3=O)C4=O)C3CCC3)cc2)CC1 (stereo in doubt)", "readout_type": "Dmax", "reading_unit": "%", "recorded_number": 20.6}
{"compound": "O=C1CCC(N2Cc3cc(C(=O)N[C@@H](c4ccc(F)cc4Cl)C4CCC4)ccc3C2=O)C(=O)N1 (stereo in doubt)", "readout_type": "Dmax", "reading_unit": "%", "recorded_number": 45.2}

[a] O=C1CCC(N2Cc3cc(C(=O)N[C@H](c4ccc(F)cn4)C4(F)CCC4)ccc3C2=O)C(=O)N1 (stereo in doubt)
[b] O=C1CCC(N2Cc3cc(C(=O)NC(c4c(F)cccc4Cl)C4CC4)ccc3C2=O)C(=O)N1 (stereo not drawn)
Challenge: When a and b are compared, which has the higher number for Dmax? Choose, then provide that item's label.
Response given: b
(b: 42.4%, a: 18.2%)

[P] O=C1CCC(N2Cc3cc(C(=O)N[C@@H](c4ccc(F)cc4Cl)C4CC4)ccc3C2=O)C(=O)N1 (stereo in doubt)
[Q] O=C1CC[C@H](N2Cc3cc(C(=O)N[C@H](c4ccc(F)cc4)C4CCC4)ccc3C2=O)C(=O)N1 (single isomer, unassigned)
[R] O=C1CCC(N2Cc3cc(C(=O)N[C@H](c4ccccc4Cl)C4CC4)ccc3C2=O)C(=O)N1 (stereo in doubt)
[S] O=C1CCC(N2Cc3cc(C(=O)N[C@@H](c4ccc(F)cc4)C4COC4)ccc3C2=O)C(=O)N1 (stereo in doubt)
Challenge: Order by Dmax, ascending. Form entry: labels listed in requested order.
Response given: S, Q, R, P

---

Target: HiBiT tagged CK1α (Homo sapiens, UniProt P48729+Q96SW2)
Sequence (P48729 whole entry): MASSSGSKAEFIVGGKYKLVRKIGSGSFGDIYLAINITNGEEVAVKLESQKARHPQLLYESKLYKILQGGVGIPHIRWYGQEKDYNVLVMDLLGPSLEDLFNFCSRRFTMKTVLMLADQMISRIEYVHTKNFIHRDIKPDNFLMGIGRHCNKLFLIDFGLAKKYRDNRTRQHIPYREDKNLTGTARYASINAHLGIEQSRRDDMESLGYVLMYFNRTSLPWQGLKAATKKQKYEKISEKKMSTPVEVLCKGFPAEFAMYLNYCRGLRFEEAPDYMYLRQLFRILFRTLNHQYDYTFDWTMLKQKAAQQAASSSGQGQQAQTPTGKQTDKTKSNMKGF
Sequence (Q96SW2 whole entry): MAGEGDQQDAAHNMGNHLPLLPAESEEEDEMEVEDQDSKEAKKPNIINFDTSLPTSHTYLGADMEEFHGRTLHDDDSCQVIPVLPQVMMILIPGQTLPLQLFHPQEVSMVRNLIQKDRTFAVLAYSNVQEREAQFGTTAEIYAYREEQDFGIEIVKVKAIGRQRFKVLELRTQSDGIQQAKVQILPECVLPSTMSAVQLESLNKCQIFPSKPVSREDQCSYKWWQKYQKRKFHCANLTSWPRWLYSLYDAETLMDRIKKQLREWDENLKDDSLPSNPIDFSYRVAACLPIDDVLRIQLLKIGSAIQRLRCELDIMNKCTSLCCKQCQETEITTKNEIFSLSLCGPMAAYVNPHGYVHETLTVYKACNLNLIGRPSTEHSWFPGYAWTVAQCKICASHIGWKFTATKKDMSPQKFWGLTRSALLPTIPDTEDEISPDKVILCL
Sequence (Q16531 whole entry partner): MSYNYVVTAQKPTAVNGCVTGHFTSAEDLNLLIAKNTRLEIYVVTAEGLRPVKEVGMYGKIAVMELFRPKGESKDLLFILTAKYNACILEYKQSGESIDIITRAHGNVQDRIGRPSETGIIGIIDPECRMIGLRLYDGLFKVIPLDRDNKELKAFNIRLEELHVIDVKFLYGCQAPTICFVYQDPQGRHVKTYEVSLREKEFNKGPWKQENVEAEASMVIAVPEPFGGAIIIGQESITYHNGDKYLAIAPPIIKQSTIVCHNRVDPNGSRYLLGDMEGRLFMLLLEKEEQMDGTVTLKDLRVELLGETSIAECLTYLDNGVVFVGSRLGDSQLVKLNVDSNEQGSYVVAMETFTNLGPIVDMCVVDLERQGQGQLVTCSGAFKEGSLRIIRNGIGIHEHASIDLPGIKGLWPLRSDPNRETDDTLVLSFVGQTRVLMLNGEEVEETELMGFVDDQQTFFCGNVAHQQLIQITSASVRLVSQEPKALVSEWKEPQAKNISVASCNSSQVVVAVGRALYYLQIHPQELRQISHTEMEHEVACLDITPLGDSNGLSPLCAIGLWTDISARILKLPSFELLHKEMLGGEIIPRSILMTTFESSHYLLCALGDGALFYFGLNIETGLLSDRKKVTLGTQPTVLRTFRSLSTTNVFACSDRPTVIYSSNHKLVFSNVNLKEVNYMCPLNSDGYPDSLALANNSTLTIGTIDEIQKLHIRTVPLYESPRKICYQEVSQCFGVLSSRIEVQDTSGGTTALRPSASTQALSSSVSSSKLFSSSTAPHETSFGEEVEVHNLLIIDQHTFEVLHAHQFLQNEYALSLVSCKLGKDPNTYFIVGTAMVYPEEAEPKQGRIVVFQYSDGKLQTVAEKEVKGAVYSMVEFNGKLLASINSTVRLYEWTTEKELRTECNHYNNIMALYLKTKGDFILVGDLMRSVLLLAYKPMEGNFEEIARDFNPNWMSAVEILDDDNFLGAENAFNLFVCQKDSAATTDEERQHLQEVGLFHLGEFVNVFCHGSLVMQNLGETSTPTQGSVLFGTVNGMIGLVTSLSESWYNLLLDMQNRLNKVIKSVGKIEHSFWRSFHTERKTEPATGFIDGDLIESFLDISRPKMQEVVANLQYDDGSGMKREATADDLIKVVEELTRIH
Experiment: CK1α degradation assay (HiBiT assay)
Type: cell-based
Conditions: HT-1080, HT-1080 cells, 20 hours; maximum CK1α degradation
readout_type: Dmax (%)

{"molecule": "O=C1CCC(N2Cc3cc(C(=O)N[C@@H](c4ccc(F)cc4Cl)C4CCC4)ccc3C2=O)C(=O)N1 (stereo in doubt) [Compound 72]", "Dmax, %": 65.5}
{"molecule": "O=C1CC[C@H](N2Cc3cc(C(=O)N[C@H](c4ccc(F)cc4)C4CCC4)ccc3C2=O)C(=O)N1 (single isomer, unassigned) [Compound 9]", "Dmax, %": 71.6}
{"molecule": "O=C1CCC(N2Cc3cc(C(=O)N[C@H](c4ccc(Cl)cc4)C4CCC4)ccc3C2=O)C(=O)N1 (stereo in doubt) [Compound 36]", "Dmax, %": 65.8}
{"molecule": "CN1CCN(c2ccc([C@@H](NC(=O)c3ccc4c(c3)CN(C3CCC(=O)NC3=O)C4=O)C3CCC3)cc2)CC1 (stereo in doubt) [Compound 21]", "Dmax, %": 60.6}
{"molecule": "O=C1CCC(N2Cc3cc(C(=O)N[C@H](c4cccc(Cl)c4)C4CC4)ccc3C2=O)C(=O)N1 (stereo in doubt) [Compound 28]", "Dmax, %": 60.1}
{"molecule": "O=C1CCC(N2Cc3cc(C(=O)N[C@H](c4ccccc4F)C4CC4)ccc3C2=O)C(=O)N1 (stereo in doubt) [Compound 11]", "Dmax, %": 64.7}

---

Biological target: HiBiT tagged GSPT1 (Homo sapiens, UniProt P15170+Q96SW2)
Test: GSPT1 degradation assay (HiBiT assay)
Type: cell-based
Settings: HT-1080, HT-1080 cells, 20 hours; maximum GSPT1 degradation
readout_type: Dmax (%)

{"molecule": "O=C1CCC(N2Cc3cc(C(=O)NC(c4ccc(F)cc4)C4CCCC4)ccc3C2=O)C(=O)N1 (centres unmarked)", "recorded_number": 36.2}
{"molecule": "O=C1CC[C@@H](N2Cc3cc(C(=O)NC(c4ccc(F)c(F)c4)C4CCC4)ccc3C2=O)C(=O)N1 (single isomer, unassigned)", "recorded_number": 28.6}
{"molecule": "O=C1CCC(N2Cc3cc(C(=O)NC(c4ccc(F)c(F)c4)C4CCC4)ccc3C2=O)C(=O)N1 (single isomer, unassigned) [Compound 47]", "recorded_number": 29.7}
{"molecule": "O=C1CCC(N2Cc3cc(C(=O)NC(c4cccc(F)c4)C4CCC4)ccc3C2=O)C(=O)N1 (centres unmarked)", "recorded_number": 32}
{"molecule": "O=C1CCC(N2Cc3cc(C(=O)NC(c4ncccc4Cl)C4CC4)ccc3C2=O)C(=O)N1 (centres unmarked)", "recorded_number": 44.9}
{"molecule": "O=C1CCC(N2Cc3cc(C(=O)N[C@H](c4ccc(F)cc4)C4CCCC4)ccc3C2=O)C(=O)N1 (mixture of isomers)", "recorded_number": 29.3}
{"molecule": "O=C1CCC(N2Cc3cc(C(=O)N[C@H](c4ccc(F)cc4)C4CC(F)(F)C4)ccc3C2=O)C(=O)N1 (single isomer, unassigned)", "recorded_number": 30.1}
{"molecule": "O=C1CCC(N2Cc3cc(C(=O)NC(c4ccc(F)cc4Cl)C4CCC4)ccc3C2=O)C(=O)N1 (single isomer, unassigned) [Compound 53]", "recorded_number": 24.2}

[A] O=C1CCC(N2Cc3cc(C(=O)N[C@@H](c4cccc(F)c4)C4CC4)ccc3C2=O)C(=O)N1 (stereo in doubt)
[B] N#Cc1cccc(C(NC(=O)c2ccc3c(c2)CN(C2CCC(=O)NC2=O)C3=O)C2CC2)c1 (centres unmarked)
[C] Cc1ccc(NC(=O)NCc2ccc3c(c2)CN(C2CCC(=O)NC2=O)C3=O)cc1Cl (centres unmarked) [CC-885, reference compound]
Challenge: Sort by Dmax, descending. Form entry: labels listed in requested order.
Response given: C, A, B
(C: 92.5%, A: 48.4%, B: 22.5%)

[1] O=C1CCC(N2Cc3cc(C(=O)N[C@H](c4ccc(F)cc4)C4(O)CC4)ccc3C2=O)C(=O)N1 (some centres unmarked)
[2] O=C1CCC(N2Cc3cc(C(=O)N[C@H](c4c(F)cccc4F)C4CC4)ccc3C2=O)C(=O)N1 (stereo in doubt)
[3] O=C1CCC(N2Cc3cc(C(=O)N[C@H](c4ncccc4-c4ccc(F)cc4)C4CCC4)ccc3C2=O)C(=O)N1 (stereo in doubt)
[4] O=C1CCC(N2Cc3cc(C(=O)N[C@H](c4cccc(Cl)c4)C4CC4)ccc3C2=O)C(=O)N1 (stereo in doubt)
Challenge: Sort by Dmax, descending. Form entry: labels listed in requested order.
Response given: 4, 2, 1, 3
(4: 70.8%, 2: 49.3%, 1: 23.1%, 3: 14.4%)

[A] O=C1CCC(N2Cc3cc(C(=O)N[C@H](c4ncc(F)cc4Cl)C4CC4)ccc3C2=O)C(=O)N1 (stereo in doubt)
[B] O=C1CC[C@H](N2Cc3cc(C(=O)N[C@H](c4ccc(F)c(F)c4)C4CCC4)ccc3C2=O)C(=O)N1 (racemic)
Challenge: When A and B are compared, which has the higher number for Dmax? Choose, then provide that item's label.
Response given: B

[P] O=C1CCC(N2Cc3cc(C(=O)NC(c4ccc(F)cc4)C4CC(F)(F)C4)ccc3C2=O)C(=O)N1 (centres unmarked)
[Q] O=C1CC[C@H](N2Cc3cc(C(=O)N[C@H](c4ccc(F)cc4Cl)C4CCC4)ccc3C2=O)C(=O)N1 (racemic)
[R] O=C1CCC(N2Cc3cc(C(=O)N[C@H](c4ncc(Cl)cc4F)C4(F)CCC4)ccc3C2=O)C(=O)N1 (stereo in doubt)
Challenge: Order by Dmax, ascending. Form entry: labels listed in requested order.
Response given: R, P, Q
(R: 17.3%, P: 31.1%, Q: 46%)

[I] O=C1CCC(N2Cc3cc(C(=O)N[C@H](c4cccc(F)c4)C4CC4)ccc3C2=O)C(=O)N1 (stereo in doubt)
[II] O=C1CCC(N2Cc3cc(C(=O)N[C@H](c4ccc(F)cc4)C4CCOCC4)ccc3C2=O)C(=O)N1 (stereo in doubt)
Challenge: When I and II are compared, which has the higher number for Dmax? Choose, then provide that item's label.
Response given: I
(I: 30.7%, II: 19.9%)

[P] O=C1CCC(N2Cc3cc(C(=O)NC(c4ccc(F)cc4Cl)C4CCC4)ccc3C2=O)C(=O)N1 (centres unmarked) [Compound 19]
[Q] O=C1CCC(N2Cc3cc(C(=O)N[C@H](c4ccc(Cl)cc4)C4CCC4)ccc3C2=O)C(=O)N1 (stereo in doubt)
Challenge: When P and Q are compared, which has the higher number for Dmax? Choose, then provide that item's label.
Response given: P

[a] O=C1CCC(N2Cc3cc(C(=O)N[C@@H](c4ccc(F)cc4F)C4CCC4)ccc3C2=O)C(=O)N1 (stereo in doubt)
[b] O=C1CC[C@H](N2Cc3cc(C(=O)N[C@H](c4ccc(Cl)cn4)C4CCC4)ccc3C2=O)C(=O)N1 (single isomer, unassigned)
Challenge: When a and b are compared, which has the higher number for Dmax? Choose, then provide that item's label.
Response given: a
